All figures here come from patent US11510931B2.

TEST_METHOD_NOTES: Ocular biodistribution of PS after topical eye drops in New Zealand white rabbits (HPLC)
Assay type: in vivo, rabbit
CONDITIONS: New Zealand white, rabbit, aqueous humor, topical, 3.5 % PS solution (eye drops), 1 h; topical eye drops, 3.5% PS solution in propylene glycol; read-out: PS in Aqueous humor

COMPOUND: CCOP(=O)(OCC)OCCCCOC(=O)CC1=C(C)/C(=C/c2ccc([S+](C)[O-])cc2)c2ccc(F)cc21 (stereo not shown)
concentration at 1 h: 700 nM

---

TEST_METHOD_NOTES: Ocular biodistribution of PS after topical eye drops in New Zealand white rabbits (HPLC)
Format: in vivo, rabbit
CONDITIONS: New Zealand white, rabbit, conjunctiva, topical, 1 h; topical eye drops, mPEG-PLA nanoparticles; read-out: PS in Conjunctiva
OBSERVABLE: concentration at 1 h (µM)

COMPOUND: CCOP(=O)(OCC)OCCCCOC(=O)CC1=C(C)/C(=C/c2ccc([S+](C)[O-])cc2)c2ccc(F)cc21 (stereo not shown) [PS, phosphosulindac]
OBSERVABLE: concentration at 1 h
ENDPOINT_VALUE: 80.4

---

TEST_METHOD_NOTES: Ocular biodistribution of PS after topical eye drops in New Zealand white rabbits (HPLC)
Format: in vivo, rabbit
CONDITIONS: New Zealand white, rabbit, aqueous humor, topical, 5.4 % PS, 3 h; topical, Poloxamer 407 in-situ gel, 5.4% PS; read-out: PS in Aqueous humor
OBSERVABLE: concentration at 3 h (µM)

COMPOUND: CCOP(=O)(OCC)OCCCCOC(=O)CC1=C(C)/C(=C/c2ccc([S+](C)[O-])cc2)c2ccc(F)cc21 (stereo not shown)
OBSERVABLE: concentration at 3 h
ENDPOINT_VALUE: 0.3

---

TEST_METHOD_NOTES: Ocular biodistribution of PS after topical eye drops in New Zealand white rabbits (HPLC)
Assay type: in vivo, rabbit
CONDITIONS: New Zealand white, rabbit, ciliary body, topical, 5.4 % PS, 3 h; topical, Poloxamer 407 in-situ gel, 5.4% PS; read-out: PS in Ciliary body

COMPOUND: CCOP(=O)(OCC)OCCCCOC(=O)CC1=C(C)/C(=C/c2ccc([S+](C)[O-])cc2)c2ccc(F)cc21 (stereo not shown)
U: nM
concentration at 3 h: 0

---

TEST_METHOD_NOTES: Ocular biodistribution of PS after topical eye drops in New Zealand white rabbits (HPLC)
Type: in vivo, rabbit
CONDITIONS: New Zealand white, rabbit, iris, topical, 1 h; topical eye drops, mPEG-PLA nanoparticles; read-out: PS in Iris
OBSERVABLE: concentration at 1 h (µM)

COMPOUND: CCOP(=O)(OCC)OCCCCOC(=O)CC1=C(C)/C(=C/c2ccc([S+](C)[O-])cc2)c2ccc(F)cc21 (stereo not shown)
U: µM
ENDPOINT_VALUE: 6.4

---

TEST_METHOD_NOTES: Ocular biodistribution of PS after topical eye drops in New Zealand white rabbits (HPLC)
Type: in vivo, rabbit
CONDITIONS: New Zealand white, rabbit, vitreous, topical, 2 h; topical, 0.5% gellan gum in-situ gel, 2.4~3% PS; read-out: PS in Vitreous
OBSERVABLE: concentration at 2 h (nM)

COMPOUND: CCOP(=O)(OCC)OCCCCOC(=O)CC1=C(C)/C(=C/c2ccc([S+](C)[O-])cc2)c2ccc(F)cc21 (stereo not shown) [PS, phosphosulindac]
OBSERVABLE: concentration at 2 h
ENDPOINT_VALUE: 0

---

TEST_METHOD_NOTES: Ocular biodistribution of PS after topical eye drops in New Zealand white rabbits (HPLC)
Assay type: in vivo, rabbit
CONDITIONS: New Zealand white, rabbit, vitreous body, topical, 3.5 % PS, 3 h; topical eye drops, 3.5% PS/16% Vitamin E TPGS/mannitol/boric acid; read-out: PS in Vitreous body

COMPOUND: CCOP(=O)(OCC)OCCCCOC(=O)CC1=C(C)/C(=C/c2ccc([S+](C)[O-])cc2)c2ccc(F)cc21 (stereo not shown) [PS, phosphosulindac]
U: µM
concentration at 3 h: 0

---

TEST_METHOD_NOTES: Ocular biodistribution of PS after topical eye drops in New Zealand white rabbits (HPLC)
Assay type: in vivo, rabbit
CONDITIONS: New Zealand white, rabbit, lacrimal gland, topical, 2 h; topical eye drops, mPEG-PLA nanoparticles; read-out: PS in Lacrimal gland

MOLECULE: CCOP(=O)(OCC)OCCCCOC(=O)CC1=C(C)/C(=C/c2ccc([S+](C)[O-])cc2)c2ccc(F)cc21 (stereo not shown) [PS, phosphosulindac]
concentration at 2 h: 600 nM

---

TEST_METHOD_NOTES: Ocular biodistribution of PS after topical eye drops in New Zealand white rabbits (HPLC)
Assay type: in vivo, rabbit
CONDITIONS: New Zealand white, rabbit, cornea, topical, 2 h; topical eye drops, mPEG-PLA nanoparticles; read-out: PS in Cornea
OBSERVABLE: concentration at 2 h (µM)

COMPOUND: CCOP(=O)(OCC)OCCCCOC(=O)CC1=C(C)/C(=C/c2ccc([S+](C)[O-])cc2)c2ccc(F)cc21 (stereo not shown) [PS, phosphosulindac]
ENDPOINT_VALUE: 43.5

---

TEST_METHOD_NOTES: Ocular biodistribution of PS after topical eye drops in New Zealand white rabbits (HPLC)
Assay type: in vivo, rabbit
CONDITIONS: New Zealand white, rabbit, conjunctiva, topical, 3.5 % PS solution (eye drops), 1 h; topical eye drops, 3.5% PS solution in propylene glycol; read-out: PS in Conjunctiva
Protocol: Results: The above PS formulation was administered topically as eye drops to the eyes of New Zealand white rabbits. The levels of PS in ocular tissues 1 h and 3 h later were determined by HPLC. The Table below summarizes the findings: Results: The above PS formulation was administered topically as eye drops to the eyes of New Zealand white rabbits. The levels of PS in ocular tissues at 2 h later were determined by HPLC. The table below summarizes the findings. […]

MOLECULE: CCOP(=O)(OCC)OCCCCOC(=O)CC1=C(C)/C(=C/c2ccc([S+](C)[O-])cc2)c2ccc(F)cc21 (stereo not shown)
U: µM
concentration at 1 h: 3.3

---

TEST_METHOD_NOTES: Ocular biodistribution of PS after topical eye drops in New Zealand white rabbits (HPLC)
Type: in vivo, rabbit
CONDITIONS: New Zealand white, rabbit, lacrimal gland, topical, 0.5 h; topical eye drops, mPEG-PLA nanoparticles; read-out: PS in Lacrimal gland

COMPOUND: CCOP(=O)(OCC)OCCCCOC(=O)CC1=C(C)/C(=C/c2ccc([S+](C)[O-])cc2)c2ccc(F)cc21 (stereo not shown) [PS, phosphosulindac]
concentration at 0.5 h: 7.5 µM

---

TEST_METHOD_NOTES: Ocular biodistribution of PS after topical eye drops in New Zealand white rabbits (HPLC)
Type: in vivo, rabbit
CONDITIONS: New Zealand white, rabbit, retina, topical, 5.4 % PS, 3 h; topical, Poloxamer 407 in-situ gel, 5.4% PS; read-out: PS in Retina
Procedure: Results: The above PS formulation was administered topically as eye drops to the eyes of New Zealand white rabbits. The levels of PS in ocular tissues 1 h and 3 h later were determined by HPLC. The Table below summarizes the findings: Results: The above PS formulation was administered topically as eye drops to the eyes of New Zealand white rabbits. The levels of PS in ocular tissues at 2 h later were determined by HPLC. The table below summarizes the findings. […]
OBSERVABLE: concentration at 3 h

COMPOUND: CCOP(=O)(OCC)OCCCCOC(=O)CC1=C(C)/C(=C/c2ccc([S+](C)[O-])cc2)c2ccc(F)cc21 (stereo not shown)
ENDPOINT_VALUE: 0 nM

---

TEST_METHOD_NOTES: Ocular biodistribution of PS after topical eye drops in New Zealand white rabbits (HPLC)
Format: in vivo, rabbit
CONDITIONS: New Zealand white, rabbit, sclera, topical, 1 h; topical eye drops, mPEG-PLA nanoparticles; read-out: PS in Sclera

COMPOUND: CCOP(=O)(OCC)OCCCCOC(=O)CC1=C(C)/C(=C/c2ccc([S+](C)[O-])cc2)c2ccc(F)cc21 (stereo not shown)
U: µM
concentration at 1 h: 17.1

---

TEST_METHOD_NOTES: Ocular biodistribution of PS after topical eye drops in New Zealand white rabbits (HPLC)
Type: in vivo, rabbit
CONDITIONS: New Zealand white, rabbit, lens, topical, 5.4 % PS, 6 h; topical, Poloxamer 407 in-situ gel, 5.4% PS; read-out: PS in Lens
OBSERVABLE: concentration at 6 h (nM)

COMPOUND: CCOP(=O)(OCC)OCCCCOC(=O)CC1=C(C)/C(=C/c2ccc([S+](C)[O-])cc2)c2ccc(F)cc21 (stereo not shown) [PS, phosphosulindac]
OBSERVABLE: concentration at 6 h
U: nM
ENDPOINT_VALUE: 0
